Cited source for all entries: paper PMC9775191

system: G. duodenalis BRIS/91/HEPU/1279; experiment: Primary Giardia screen at 10 µM (live-cell imaging, automated counting); type: cell-based, Giardia duodenalis; conditions: 48 h, first singlicate assay

Compound | Unit String | % Inhibition n=1 48h
Cc1cn2c(S(=O)(=O)N3CCN(c4ccc(F)cc4)CC3)c(C(C)C)nc2s1 | % | 19.4
Cc1cc(NS(=O)(=O)c2cc(-c3[nH]ncc3C(=O)N3CCCC3)oc2C)ccc1F | % | 0.0
CC(C)CCNC(=O)C1(C)CCc2ccccc2C(=O)N1Cc1ccccc1F (stereo not drawn) | % | 14.6
CCc1onc(C)c1C1CCCN1C(=O)c1ccc2c(c1)OCO2 (stereo not drawn) | % | 6.6
CCN(CC)CCCC(C)NC(=O)c1cc(-c2ccco2)on1 (stereo not drawn) | % | 3.7
O=C(NCc1ccc(Cl)cc1)c1noc2c1CCCC2 | % | 0.0
NC1=Nc2nc3ccccc3n2C(c2ccc(-c3ccc(F)cc3)o2)N1 (stereo not drawn) | % | 31.0
O=C(Cc1ccccc1Cl)NCCc1noc(-c2ccccn2)n1 | % | 21.7
CCc1nnsc1C(=O)N1CCCN(Cc2cnn(CC)c2)CC1 | % | 0.0
C=CCn1c(=O)c(N2CCC(NC(=O)NC3CCCC3)CC2)nc2cccnc21 | % | 6.8
O=C(c1ccc[nH]c1=S)N1CCCC(CN2CCN(c3ccccn3)CC2)C1 (stereo not drawn) | % | 0.0
Cc1cccc(NC(=O)C2CCCN(c3c([N+](=O)[O-])c(C)nn3C)C2)n1 (stereo not drawn) | % | 0.0
O=C(Nc1cc(Cl)ccc1O)c1cc(-c2ccc(F)cc2)no1 | % | 3.6
CCCn1nccc1-c1csc(S(=O)(=O)NC(C)C)c1 | % | 9.7
CCCNC(=O)N1Cc2c(sc3c2CCCC3)-n2cccc2C1CC (stereo not drawn) | % | 15.0
CCc1ccc(CNC(=O)c2c[nH]nc2-c2ccc(Cl)cc2)cc1 | % | 7.3
Cc1csc(C2CCN(C(=O)c3ccccc3[N+](=O)[O-])CC2)n1 | % | 8.2
CCOC(=O)c1ccc(Nc2c(-c3ccccc3)nc3[nH]cnn23)cc1 | % | 0.0
Cc1ncc(C(=O)NC2C3CCCOC3C2(C)C)s1 (stereo not drawn) | % | 9.0
CSc1ccc(CNC(=O)C2CCN(S(=O)(=O)c3ccc(-c4ccn[nH]4)o3)CC2)cc1 | % | 11.7
O=c1c2cccnc2n(Cc2cc(=O)n3ccccc3n2)c(=O)n1CCc1ccccc1 | % | 7.3
COc1cc(-c2noc(-c3cc(-c4ccco4)n[nH]3)n2)cc(OC)c1OC | % | 2.3
COc1ccc(C(NC(=O)CN2CCN(Cc3n[nH]c(C)n3)CC2)C(C)C)cc1 (stereo not drawn) | % | 0.6
O=S(=O)(Cc1ccccc1)Nc1cccc(-c2nnc(Cc3ccc4c(c3)OCO4)o2)c1 | % | 80.2
CCOC(=O)CCNC(=O)N1CCc2c(nc3cc(-c4ccccc4Cl)[nH]n3c2=O)C1 | % | 13.6
CCN1CCN(CCCNC(=O)c2cc3occc3c(Nc3ccc(OC)cc3)n2)CC1 | % | 14.5
CCC(=O)N1CCCC1C1CCCN1Cc1cn2c(C)cccc2n1 (stereo not drawn) | % | 16.6
O=C(Cn1cnc([N+](=O)[O-])n1)NCCc1ccccc1 | % | 33.8
Cc1cccc(C)c1NC(=O)Cn1c(=O)n(CCc2c[nH]c3ccccc23)c(=O)c2cccnc21 | % | 0.5
Cc1c(N2CCC(C(=O)NC3CCCCCC3)CC2)c(=O)n(CC(C)C)c(=O)n1-c1ccccc1 | % | 9.5
Cc1nn(CCC(=O)Nc2cccc(F)c2)c(=O)c2noc(C)c12 | % | 21.9
COc1ccc(-c2cc(N3CCC(NC(=O)Cc4ccccc4)CC3)[nH]n2)cc1 | % | 0.0
O=C(NCc1ccccc1Cl)c1cc2n(n1)CCCN(Cc1ccc(F)cc1)C2=O | % | 0.0
CC1CCCCN1S(=O)(=O)c1ccc(NC(=O)c2cc(-c3cccs3)on2)cc1 (stereo not drawn) | % | 10.1
NC(=O)c1cn(Cc2nc(-c3ccoc3)no2)nc1-c1ccccc1 | % | 0.0
COc1ccc(-c2c(C(=O)Nc3cccc(Cl)c3)nn3c(C)cc(=O)[nH]c23)cc1 | % | 7.0
